- System: Plasmodium falciparum
- protocol: GSK_TCMDC: Inhibition of Plasmodium falciparum Dd2 in whole red blood cells, using parasite LDH activity as an index of growth. Test compounds present at 2uM
- Type: functional
// label = YES if Inhibition is not less than 40%, otherwise NO

Is Inhibition at least 40%? Consider COc1ccc(-c2onc(C(F)(F)F)c2-c2ccc(Br)cc2)c(O)c1
YES

====

- System: HepG2
- protocol: GSK_TCMDC: Percent inhibition of human HepG2 cell line. Test compounds present at 10uM.
- Type: functional
// label = T if Inhibition is not less than 20%, otherwise F

Worked cases, answers included:
molecule: COc1ccc(CNCc2ccccc2)cc1-c1ccc(S(=O)(=O)NCCN2CCCC2)s1.O=C(O)C(F)(F)F
group: T
//
molecule: N#Cc1ccc(-c2ccc(C(=O)NCCCCN3CCC(c4cc(Br)c5c(c4O)CCCC5)CC3)cc2)cc1
group: T
//
molecule: CCN(CCNC(=O)Nc1cc(C(F)(F)F)cc(C(F)(F)F)c1)c1cccc(C)c1
group: F
//
molecule: Cl.OCC(CO)(CO)NCc1ccc2c3c(cccc13)-c1ccccc1-2
group: T
//
molecule: CO/C(=C\C=C\c1cc2cc(Cl)c(Cl)cc2[nH]1)C(=O)NCCCN1CCN(c2cccc(Cl)c2)CC1
group: T
//
molecule: COc1ccc(-n2nc(C(=O)NCc3ccccc3OC)c3ccccc3c2=O)cc1
group: F

With those in mind, consider the next molecule.
Is Inhibition at least 20%? Consider COc1ccc(CNCC(C)(C)c2nc(-c3ccc(Cl)c(O)c3)c(-c3ccncc3)[nH]2)cc1.Cl
T

====

- Test system: Plasmodium falciparum
- protocol: GSK_TCMDC: Inhibition of Plasmodium falciparum 3D7 in whole red blood cells, using parasite LDH activity as an index of growth. Test compounds present at 2uM
- Format: functional
Recorded Inhibition for the following compounds
Numbers only; they are read as %.

Sample answers from the record:
compound: CCN(CC)CCN(Cc1ccc(-c2ccc(C(F)(F)F)cc2)cc1)C(=O)Cn1c(CCc2cc(F)c(F)cc2F)nc(=O)c2ccccc21.O=C(O)C(O)C(O)C(=O)O
subject.of.test: Plasmodium falciparum
units.of.measure: %
Inhibition: 99
--
compound: O=C(Nc1ccc(C(F)(F)F)cc1)c1ccc(S(=O)(=O)NC2CCN(CC3CCCCC3)CC2)cc1.O=C(O)C(F)(F)F
subject.of.test: Plasmodium falciparum
units.of.measure: %
Inhibition: 100
--
compound: COc1ccc2nccc(N3CCC(SCCNS(=O)(=O)c4ccc5c(c4)OCCO5)C3)c2n1.Cl (stereo unspecified)
subject.of.test: Plasmodium falciparum
units.of.measure: %
Inhibition: 94

Entry Br.N=C1N=C(N)NC2(CCCCC2)N1OCCCOc1cc(Cl)c(Cl)cc1Cl , system Plasmodium falciparum: what Inhibition was measured?
94

Entry CCN(CC)CCN1C(=O)c2oc3ccc(F)cc3c(=O)c2C1c1cccc(Cl)c1 (stereo unspecified) , system Plasmodium falciparum: what Inhibition was measured?
99

Entry CCCCCCNCc1c(O)ccc2c(CNCCCCCC)c(O)ccc12.Cl , system Plasmodium falciparum: what Inhibition was measured?
100

====

- Tested on: HepG2
- protocol: GSK_TCMDC: Percent inhibition of human HepG2 cell line. Test compounds present at 10uM.
- Type: functional
The class of a record is decided solely by its measured Inhibition; consult c1 = under 10%, c2 = from 10% up to 30%, c3 = 30% and over

compound: Cc1cc(F)ccc1C1CCN(CCCCNC(=O)c2ccc(NC(=O)c3ccc(Cl)cc3)cc2)CC1
group: c2

compound: COc1cc2nc(N3CCC(CNC(=O)c4ccc(-c5ccc(-c6noc(C)n6)cc5)cc4)CC3)nc(N)c2cc1OC
group: c3

compound: O=S(=O)(c1ccccc1OC(F)(F)F)C1CC2CCC(C1)N2S(=O)(=O)c1cccc(C(F)(F)F)c1 (stereo not given)
group: c1

compound: CC(=O)Nc1nc(C(=O)Nc2cccc(-c3ccc(-c4nc5cc(F)ccc5[nH]4)cc3)c2)cs1
group: c3

compound: Cc1nn(C)cc1C(C)Nc1nncc(-c2ccc(C(F)(F)F)cc2)n1 (stereo not given)
group: c1

compound: Oc1ccc(-c2cc(-c3ccc(O)cc3)nc(-c3ccccc3)n2)cc1
group: c1

Lab note: sort COc1ccc(CN2CCN(CCCCNC(=O)c3ccc(NC(=O)c4ccc(Cl)cc4)cc3)CC2)c(OC)c1 into the matching Inhibition band.
c2

Lab note: sort O=C(O)C(F)(F)F.Oc1ccc(-c2nc3c(N4CCN(Cc5ccccc5)CC4)cccc3n2C2CCNCC2)cc1 into the matching Inhibition band.
c1
